Items are presented alongside their recorded Activity.
# assayed_target: RAC-alpha serine/threonine-protein kinase (Homo sapiens) (UniProt P31749)
# Sequence (P31749 whole entry): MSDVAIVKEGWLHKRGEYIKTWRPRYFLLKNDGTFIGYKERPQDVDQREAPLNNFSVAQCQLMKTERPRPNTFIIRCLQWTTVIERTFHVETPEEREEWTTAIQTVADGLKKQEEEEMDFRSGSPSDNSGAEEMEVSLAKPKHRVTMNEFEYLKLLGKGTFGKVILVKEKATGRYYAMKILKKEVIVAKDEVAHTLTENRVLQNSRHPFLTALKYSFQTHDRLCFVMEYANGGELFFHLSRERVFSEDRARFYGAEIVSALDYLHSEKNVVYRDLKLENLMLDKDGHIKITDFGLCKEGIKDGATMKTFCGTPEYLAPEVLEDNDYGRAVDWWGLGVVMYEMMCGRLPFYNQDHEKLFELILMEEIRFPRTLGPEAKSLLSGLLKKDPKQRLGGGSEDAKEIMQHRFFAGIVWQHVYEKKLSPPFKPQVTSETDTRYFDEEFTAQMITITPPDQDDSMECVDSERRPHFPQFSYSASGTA
# test_summary: Percentage PKBalpha activity remaining in the presence of 0.1uM inhibitor

compound: CC(C)[C@H](CO)Nc1nc(Nc2cccc(Cl)c2)c2ncn(C(C)C)c2n1
unit_abbrev: %
Activity: 95
//
compound: Cn1cc(C2=C(c3cn(CCCSC(=N)N)c4ccccc34)C(=O)NC2=O)c2ccccc21
unit_abbrev: %
Activity: 52
//
compound: O=C(NCCCNc1nc(Nc2cccc(NC(=O)N3CCCC3)c2)ncc1I)c1cccs1
unit_abbrev: %
Activity: 90
//
compound: Cn1c2ccccc2c2c3c(c4c5ccccc5n(CCC#N)c4c21)CNC3=O
unit_abbrev: %
Activity: 96
//
compound: CN(C)C[C@@H]1CCn2cc(c3ccccc32)C2=C(C(=O)NC2=O)c2cn(c3ccccc23)CCO1
unit_abbrev: %
Activity: 90
//
compound: CC(C)CCN1c2nc(Nc3cc(F)c(O)c(F)c3)ncc2N(C)C(=O)C1C (stereo unspecified)
unit_abbrev: %
Activity: 98

---

# assayed_target: cAMP-dependent protein kinase catalytic subunit alpha (Homo sapiens, UniProt P17612)
# test_summary: Percentage PKA activity remaining in the presence of 0.1uM inhibitor
Please use Yes whenever Activity is not below 70%, and No whenever it is.

compound: CC(C)CCN1c2nc(Nc3cc(F)c(O)c(F)c3)ncc2N(C)C(=O)C1C (stereo not given)
answer_label: Yes

compound: CN(C)C[C@@H]1CCn2cc(c3ccccc32)C2=C(C(=O)NC2=O)c2cn(c3ccccc23)CCO1
answer_label: No

compound: CC(C)[C@H](CO)Nc1nc(Nc2cccc(Cl)c2)c2ncn(C(C)C)c2n1 [PURVALANOLA]
answer_label: Yes

compound: Cn1cc(C2=C(c3cn(CCCSC(=N)N)c4ccccc34)C(=O)NC2=O)c2ccccc21
answer_label: No

---

# assayed_target: MAP/microtubule affinity-regulating kinase 3 (Homo sapiens)
# test_summary: Percentage MARK3 activity remaining in the presence of 0.1uM inhibitor
Please use Y whenever Activity is not below 80%, and N whenever it is.

molecule: CN(C)C[C@@H]1CCn2cc(c3ccccc32)C2=C(C(=O)NC2=O)c2cn(c3ccccc23)CCO1
assayed_target: MAP/microtubule affinity-regulating kinase 3 (Homo sapiens)
answer_label: N

molecule: Cn1cc(C2=C(c3cn(CCCSC(=N)N)c4ccccc34)C(=O)NC2=O)c2ccccc21
assayed_target: MAP/microtubule affinity-regulating kinase 3 (Homo sapiens)
answer_label: N

molecule: Cc1n[nH]c2ccc(-c3cncc(OC[C@@H](N)Cc4c[nH]c5ccccc45)c3)cc12
assayed_target: MAP/microtubule affinity-regulating kinase 3 (Homo sapiens)
answer_label: Y

molecule: CC(C)[C@H](CO)Nc1nc(Nc2cccc(Cl)c2)c2ncn(C(C)C)c2n1 [PURVALANOLA]
assayed_target: MAP/microtubule affinity-regulating kinase 3 (Homo sapiens)
answer_label: Y

---

Items are presented alongside their recorded Activity.
# assayed_target: MAP kinase-activated protein kinase 3 (Homo sapiens) (UniProt Q16644)
# Sequence (Q16644 whole entry, looked up): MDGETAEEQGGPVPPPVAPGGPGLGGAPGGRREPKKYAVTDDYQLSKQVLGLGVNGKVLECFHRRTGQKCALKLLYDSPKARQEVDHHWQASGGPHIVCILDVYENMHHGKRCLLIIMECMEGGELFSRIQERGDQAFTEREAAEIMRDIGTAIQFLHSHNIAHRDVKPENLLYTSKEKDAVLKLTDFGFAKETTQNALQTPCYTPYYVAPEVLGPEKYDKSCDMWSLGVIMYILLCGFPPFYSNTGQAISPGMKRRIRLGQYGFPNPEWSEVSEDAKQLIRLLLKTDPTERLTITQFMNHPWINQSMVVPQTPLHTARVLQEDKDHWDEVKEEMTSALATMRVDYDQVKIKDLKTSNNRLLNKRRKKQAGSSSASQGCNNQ
# test_summary: Percentage MAPKAPK3 activity remaining in the presence of 0.1uM inhibitor

molecule: CC(C)[C@H](CO)Nc1nc(Nc2cccc(Cl)c2)c2ncn(C(C)C)c2n1
unit_abbrev: %
Activity: 88
//
molecule: Cn1cc(C2=C(c3cn(CCCSC(=N)N)c4ccccc34)C(=O)NC2=O)c2ccccc21
unit_abbrev: %
Activity: 90
//
molecule: CN(C)C[C@@H]1CCn2cc(c3ccccc32)C2=C(C(=O)NC2=O)c2cn(c3ccccc23)CCO1
unit_abbrev: %
Activity: 90
//
molecule: Cc1n[nH]c2ccc(-c3cncc(OC[C@@H](N)Cc4c[nH]c5ccccc45)c3)cc12
unit_abbrev: %
Activity: 96
//
molecule: CC(C)CCN1c2nc(Nc3cc(F)c(O)c(F)c3)ncc2N(C)C(=O)C1C (configuration not stated)
unit_abbrev: %
Activity: 108
//
molecule: O=C(NCCCNc1nc(Nc2cccc(NC(=O)N3CCCC3)c2)ncc1I)c1cccs1
unit_abbrev: %
Activity: 102
//
molecule: Cn1c2ccccc2c2c3c(c4c5ccccc5n(CCC#N)c4c21)CNC3=O
unit_abbrev: %
Activity: 95

---

# assayed_target: Mitogen-activated protein kinase 9 (Homo sapiens)
# Sequence (P45984 whole entry, looked up): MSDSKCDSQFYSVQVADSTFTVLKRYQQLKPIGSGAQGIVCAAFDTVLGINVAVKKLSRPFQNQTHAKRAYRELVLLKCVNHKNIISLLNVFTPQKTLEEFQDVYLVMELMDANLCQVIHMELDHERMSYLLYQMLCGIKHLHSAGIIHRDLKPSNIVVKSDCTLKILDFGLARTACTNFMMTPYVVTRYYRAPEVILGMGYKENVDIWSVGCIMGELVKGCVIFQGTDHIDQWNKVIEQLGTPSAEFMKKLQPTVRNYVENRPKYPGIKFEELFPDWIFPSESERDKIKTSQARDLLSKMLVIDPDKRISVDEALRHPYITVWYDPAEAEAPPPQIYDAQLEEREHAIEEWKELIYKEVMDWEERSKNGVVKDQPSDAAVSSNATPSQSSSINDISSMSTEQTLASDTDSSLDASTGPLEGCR
# test_summary: Percentage JNK2 activity remaining in the presence of 0.1uM inhibitor
Please use Condition met whenever Activity is not below 80%, and Condition not met whenever it is.

compound: Cn1cc(C2=C(c3cn(CCCSC(=N)N)c4ccccc34)C(=O)NC2=O)c2ccccc21
answer_label: Condition met
--
compound: O=C(NCCCNc1nc(Nc2cccc(NC(=O)N3CCCC3)c2)ncc1I)c1cccs1
answer_label: Condition not met
--
compound: CN(C)C[C@@H]1CCn2cc(c3ccccc32)C2=C(C(=O)NC2=O)c2cn(c3ccccc23)CCO1
answer_label: Condition met
--
compound: Cn1c2ccccc2c2c3c(c4c5ccccc5n(CCC#N)c4c21)CNC3=O
answer_label: Condition not met
--
compound: CC(C)CCN1c2nc(Nc3cc(F)c(O)c(F)c3)ncc2N(C)C(=O)C1C (configuration not stated)
answer_label: Condition met
--
compound: CC(C)[C@H](CO)Nc1nc(Nc2cccc(Cl)c2)c2ncn(C(C)C)c2n1
answer_label: Condition met

---

# assayed_target: SRSF protein kinase 1 (Homo sapiens) (UniProt Q96SB4)
# Sequence (Q96SB4 whole entry): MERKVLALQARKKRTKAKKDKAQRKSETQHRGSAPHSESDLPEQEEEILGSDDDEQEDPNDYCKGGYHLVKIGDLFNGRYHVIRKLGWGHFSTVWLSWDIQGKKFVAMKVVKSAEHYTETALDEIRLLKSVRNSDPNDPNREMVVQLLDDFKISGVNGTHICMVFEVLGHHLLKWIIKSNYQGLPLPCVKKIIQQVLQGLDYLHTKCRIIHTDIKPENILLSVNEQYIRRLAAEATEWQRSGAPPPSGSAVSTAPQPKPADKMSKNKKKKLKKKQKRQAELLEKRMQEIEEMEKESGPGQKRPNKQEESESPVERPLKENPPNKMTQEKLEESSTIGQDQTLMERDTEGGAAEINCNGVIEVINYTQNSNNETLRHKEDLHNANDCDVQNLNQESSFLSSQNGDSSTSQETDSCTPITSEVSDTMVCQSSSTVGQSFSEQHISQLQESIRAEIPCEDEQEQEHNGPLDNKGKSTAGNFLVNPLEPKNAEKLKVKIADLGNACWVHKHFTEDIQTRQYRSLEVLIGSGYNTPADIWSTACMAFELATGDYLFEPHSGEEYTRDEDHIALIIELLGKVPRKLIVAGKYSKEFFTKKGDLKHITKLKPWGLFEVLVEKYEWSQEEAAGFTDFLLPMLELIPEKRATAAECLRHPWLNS
# test_summary: Percentage SRPK1 activity remaining in the presence of 0.1uM inhibitor
Please use criterion met whenever Activity is not below 90%, and criterion not met whenever it is.

compound: O=C(NCCCNc1nc(Nc2cccc(NC(=O)N3CCCC3)c2)ncc1I)c1cccs1
answer_label: criterion not met

compound: CC(C)[C@H](CO)Nc1nc(Nc2cccc(Cl)c2)c2ncn(C(C)C)c2n1
answer_label: criterion not met

compound: Cn1cc(C2=C(c3cn(CCCSC(=N)N)c4ccccc34)C(=O)NC2=O)c2ccccc21
answer_label: criterion not met

compound: CC(C)CCN1c2nc(Nc3cc(F)c(O)c(F)c3)ncc2N(C)C(=O)C1C (stereo unspecified)
answer_label: criterion met

---

# assayed_target: Dual specificity tyrosine-phosphorylation-regulated kinase 1A (Homo sapiens) (UniProt Q13627)
# test_summary: Percentage DYRK1A activity remaining in the presence of 0.1uM inhibitor
Items are presented alongside their recorded Activity.
measured_property: Activity (%)

molecule: CC(C)CCN1c2nc(Nc3cc(F)c(O)c(F)c3)ncc2N(C)C(=O)C1C (centres undefined)
measured_property: Activity
number: 96

molecule: CN(C)C[C@@H]1CCn2cc(c3ccccc32)C2=C(C(=O)NC2=O)c2cn(c3ccccc23)CCO1
measured_property: Activity
number: 74

molecule: CC(C)[C@H](CO)Nc1nc(Nc2cccc(Cl)c2)c2ncn(C(C)C)c2n1
measured_property: Activity
number: 88

molecule: O=C(NCCCNc1nc(Nc2cccc(NC(=O)N3CCCC3)c2)ncc1I)c1cccs1
measured_property: Activity
number: 83

---

Items are presented alongside their recorded Activity.
# assayed_target: Calcium/calmodulin-dependent protein kinase kinase 1 (Homo sapiens)
# test_summary: Percentage CaMKKalpha activity remaining in the presence of 0.1uM inhibitor
measured_property: Activity (%)

molecule: CC(C)CCN1c2nc(Nc3cc(F)c(O)c(F)c3)ncc2N(C)C(=O)C1C (stereo unspecified)
number: 92
--
molecule: O=C(NCCCNc1nc(Nc2cccc(NC(=O)N3CCCC3)c2)ncc1I)c1cccs1
number: 69
--
molecule: Cc1n[nH]c2ccc(-c3cncc(OC[C@@H](N)Cc4c[nH]c5ccccc45)c3)cc12
number: 117
--
molecule: CC(C)[C@H](CO)Nc1nc(Nc2cccc(Cl)c2)c2ncn(C(C)C)c2n1 [PURVALANOLA]
number: 76
--
molecule: Cn1cc(C2=C(c3cn(CCCSC(=N)N)c4ccccc34)C(=O)NC2=O)c2ccccc21
number: 104
--
molecule: CN(C)C[C@@H]1CCn2cc(c3ccccc32)C2=C(C(=O)NC2=O)c2cn(c3ccccc23)CCO1
number: 97

---

# assayed_target: MAP kinase-interacting serine/threonine-protein kinase 1 (Homo sapiens) (UniProt Q9BUB5)
# Sequence (Q9BUB5 whole entry, looked up): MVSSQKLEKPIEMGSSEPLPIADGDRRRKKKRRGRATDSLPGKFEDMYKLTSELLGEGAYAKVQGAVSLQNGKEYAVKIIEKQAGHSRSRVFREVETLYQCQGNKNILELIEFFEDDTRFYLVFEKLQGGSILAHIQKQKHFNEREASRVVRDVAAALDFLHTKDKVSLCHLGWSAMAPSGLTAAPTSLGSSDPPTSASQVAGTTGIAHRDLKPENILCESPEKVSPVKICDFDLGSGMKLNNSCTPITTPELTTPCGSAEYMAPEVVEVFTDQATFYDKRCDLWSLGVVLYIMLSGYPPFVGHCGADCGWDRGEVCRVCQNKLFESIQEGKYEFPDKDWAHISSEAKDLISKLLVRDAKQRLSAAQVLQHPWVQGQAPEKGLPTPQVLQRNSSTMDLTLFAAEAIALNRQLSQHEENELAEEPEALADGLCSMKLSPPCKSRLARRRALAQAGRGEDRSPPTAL
# test_summary: Percentage MNK1 activity remaining in the presence of 0.1uM inhibitor
Items are presented alongside their recorded Activity.
measured_property: Activity (%)

compound: Cn1c2ccccc2c2c3c(c4c5ccccc5n(CCC#N)c4c21)CNC3=O
number: 67
--
compound: CC(C)CCN1c2nc(Nc3cc(F)c(O)c(F)c3)ncc2N(C)C(=O)C1C (stereo unspecified)
number: 87
--
compound: CC(C)[C@H](CO)Nc1nc(Nc2cccc(Cl)c2)c2ncn(C(C)C)c2n1 [PURVALANOLA]
number: 92
--
compound: Cn1cc(C2=C(c3cn(CCCSC(=N)N)c4ccccc34)C(=O)NC2=O)c2ccccc21
number: 95
--
compound: CN(C)C[C@@H]1CCn2cc(c3ccccc32)C2=C(C(=O)NC2=O)c2cn(c3ccccc23)CCO1
number: 94
--
compound: Cc1n[nH]c2ccc(-c3cncc(OC[C@@H](N)Cc4c[nH]c5ccccc45)c3)cc12
number: 109

---

# assayed_target: Calcium/calmodulin-dependent protein kinase type 1 (Homo sapiens) (UniProt Q14012)
# Sequence (Q14012 whole entry, looked up): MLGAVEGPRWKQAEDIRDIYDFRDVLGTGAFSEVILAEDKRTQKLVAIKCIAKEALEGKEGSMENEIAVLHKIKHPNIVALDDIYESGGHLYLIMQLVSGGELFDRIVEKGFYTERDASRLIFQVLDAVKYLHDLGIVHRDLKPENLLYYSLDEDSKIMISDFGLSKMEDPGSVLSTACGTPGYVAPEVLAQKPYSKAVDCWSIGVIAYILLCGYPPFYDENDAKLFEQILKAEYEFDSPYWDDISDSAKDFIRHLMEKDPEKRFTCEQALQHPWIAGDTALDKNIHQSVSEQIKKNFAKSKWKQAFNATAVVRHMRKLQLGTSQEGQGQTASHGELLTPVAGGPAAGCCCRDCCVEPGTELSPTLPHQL
# test_summary: Percentage CaMK1 activity remaining in the presence of 0.1uM inhibitor

molecule: Cn1cc(C2=C(c3cn(CCCSC(=N)N)c4ccccc34)C(=O)NC2=O)c2ccccc21
unit_abbrev: %
Activity: 91
//
molecule: CC(C)CCN1c2nc(Nc3cc(F)c(O)c(F)c3)ncc2N(C)C(=O)C1C (stereo unspecified)
unit_abbrev: %
Activity: 103
//
molecule: Cn1c2ccccc2c2c3c(c4c5ccccc5n(CCC#N)c4c21)CNC3=O
unit_abbrev: %
Activity: 98
//
molecule: Cc1n[nH]c2ccc(-c3cncc(OC[C@@H](N)Cc4c[nH]c5ccccc45)c3)cc12
unit_abbrev: %
Activity: 77
//
molecule: O=C(NCCCNc1nc(Nc2cccc(NC(=O)N3CCCC3)c2)ncc1I)c1cccs1
unit_abbrev: %
Activity: 71
//
molecule: CC(C)[C@H](CO)Nc1nc(Nc2cccc(Cl)c2)c2ncn(C(C)C)c2n1 [PURVALANOLA]
unit_abbrev: %
Activity: 99
